Hey, just so you know, these numbers are from PubChem BioAssay AID624317.

- EXPERIMENTAL_SYSTEM: Probable nicotinate-nucleotide adenylyltransferase (Staphylococcus aureus (strain N315)) (UniProt P65502)
- Sequence (P65502 whole entry, looked up): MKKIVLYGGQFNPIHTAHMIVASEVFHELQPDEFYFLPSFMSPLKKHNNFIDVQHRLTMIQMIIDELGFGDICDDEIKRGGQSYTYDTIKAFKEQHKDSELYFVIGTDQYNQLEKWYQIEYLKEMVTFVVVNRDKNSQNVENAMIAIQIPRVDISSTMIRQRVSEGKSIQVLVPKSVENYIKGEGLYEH
- PROCEDURE_DETAILS: potency of S. aureus NadD blockers – biochemical, colorimetric, uHTS hits, dose response (AID 624317)
- CONDITION_DETAILS: purified NadD enzyme, colorimetric activity assay
ASSAY_ENDPOINT: pIC50
// pIC50: -log10(molar conc.)

Task: Any idea what pIC50 was measured for C[c-]1[c-](C)[c-](C)[c-](C)[c-]1C.[Fe].c1cc2nccc(N3CCCC3)[c-]2c1 (stereo unspecified) ?
Output: 4.44
